- Tested on: HEK 293T cells
- experiment: GCV sensitivity assay (luciferase or β-galactosidase activity as cell viability) in transfected HEK 293T cells
- Format: cell-based
- particulars: Homo sapiens, 96 h, HEK 293T cells transfected with pRL-2MDR-TKp-TK alone, four days of GCV
pIC50: −log10 of the molar value.
property-measured: pIC50

Exercise: For the compound `Nc1nc(O)c2ncn(COC(CO)CO)c2n1` , what pIC50 is on record?
Solution: ~6.70
